assay: chemical genetic growth profiling, strain panel (AID 1159580);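 also: tested at 20 µM; growth read once vehicle control cultures reached saturation at 30 °C; 1 = growth at the plate median or of vehicle wells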; conditions: S. cerevisiae deletion strains, growth OD, locus YJL157C, strain FAR1
The campaign covered roughly 5,500 compounds. About 2,000 (36%) were called active. About 18% were inconclusive and are not listed. Rule as the data show it: active = normalized growth mostly below about 0.91 (no sharp cut-off); inconclusive = no clear call, values can overlap the other calls; inactive = mostly above about 0.92. This is one part of the list.
Labels: active, inactive

| Molecule | Class Name |
| --- | --- |
| O=C(NCc1ccco1)c1csc(C2COc3ccccc3O2)n1 (stereo unspecified) | inactive |
| COc1ccccc1C(C[N+](=O)[O-])c1c(N)n(C)c(=O)n(C)c1=O (stereo unspecified) | active |
| O=C(CO/N=C\c1ccc(Cl)cc1Cl)NNC(=S)Nc1cc(Cl)ccc1Cl | inactive |
| Cc1cc(C(=O)O/N=C(/N)c2ccc(C(C)(C)C)cc2)no1 | inactive |
| CC(C)(O)C#Cc1ccc(/C=N\Nc2c(Cl)cc(Cl)cc2Cl)cc1 | inactive |
| Cc1cc(C(=O)O/N=C(/N)c2ccc([N+](=O)[O-])o2)no1 | inactive |
| Clc1ccc(-c2noc(CSC3=NCCN3)n2)cc1 | inactive |
| O=C(CCSc1cccs1)Nc1cccc(C(F)(F)F)c1 | inactive |
| O=C(Nc1ccccn1)c1cc(-c2ccccc2)c(C(F)(F)F)s1 | inactive |
| CCCC1c2ccsc2CCN1C(=S)Nc1ccc(Cl)cc1Cl (stereo unspecified) | inactive |
| CCc1cc2c(cc1-c1csc(C/C(N)=N\O)n1)C(C)(C)CCC2(C)C | inactive |

* * *

test: chemical genetic growth profiling, strain panel (AID 1159580); settings: S. cerevisiae deletion strains, growth OD, locus YIR030C, strain dcg1, stronger effect = lower value
Out of some 5,500 compounds screened, about 2,000 (36%) were called active. Not shown: some 18% with an inconclusive outcome. Some of the results follow.
Consider the following molecules and their measured normalized growth readings.
Property Measured: normalized growth

| Molecule | Endpoint Result |
| --- | --- |
| O=C(/C=C/c1ccc(O)c(O)c1)O[C@@H]1C[C@](O)(C(=O)O)C[C@@H](O)[C@H]1O | 1.01 |
| CC(Cc1ccc(O)c(O)c1)(NN)C(=O)O (stereo unspecified) | 1.01 |
| CN=C1CN(O)C(c2ccccc2)=c2cc(Cl)ccc2=N1 | 0.985 |
| OCC(S)CS (stereo unspecified) | 0.989 |
| NC(=O)N/N=C\c1ccc([N+](=O)[O-])o1 | 0.989 |
| CN(C)CCCO[C@H]1[C@@H](C(O)CO)OC2OC(C)(C)O[C@@H]21 (stereo partly specified) | 0.986 |

* * *

experiment: chemical genetic growth profiling, strain panel (AID 1159580);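 also: tested at 20 µM; growth read once vehicle control cultures reached saturation at 30 °C; 1 = growth at the plate median or of vehicle wells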; details: S. cerevisiae deletion strains, growth OD, locus YLR384C, strain iki3, stronger effect = lower value
The whole screen tested about 5,500 compounds, of which about 2,000 (36%) were called active. About 18% were inconclusive and are not listed. This is one part of the list.

| Compound | normalized growth |
| --- | --- |
| C[C@]12CCC3c4ccc(OS(=O)(=O)O)cc4CCC3C1CCC2=O (stereo partly drawn) | 0.981 |
| CC(Cc1ccc(O)c(O)c1)(NN)C(=O)O (stereo not drawn) | 0.976 |
| NC(=O)c1ccc(N)nc1 | 0.986 |
| OC1CCCCC1N1CCC(c2ccccc2)CC1 (stereo not drawn) | 0.983 |
| COc1ccc(C[C@H](N)C(=O)N[C@@H]2[C@@H](CO)OC(n3cnc4c(N(C)C)ncnc43)[C@@H]2O)cc1 (stereo partly drawn) | 0.979 |
| Nc1ccc(S(=O)(=O)Nc2nccs2)cc1 | 1.02 |
| C#C[C@]1(O)CCC2C3CCc4cc(OC)ccc4C3CC[C@@]21C (stereo partly drawn) | 0.986 |
| O=C1O[C@@H](CO)[C@H](O)[C@@H](O)[C@@H]1O | 1.01 |
| CCCN(CCC)C(=O)C(CCC(=O)O)NC(=O)c1ccccc1 (stereo not drawn) | 0.982 |
| CC[C@]12CCCN3CCc4c(n(c5ccccc45)[C@](O)(C(=O)OC)C1)[C@@H]32 | 0.977 |
| CCn1cc(C(=O)O)c(=O)c2cnc(N3CCNCC3)nc21 | 0.999 |
| CC12CCCC(O)(C1)C1CC(C)(C)C1CC2 (stereo not drawn) | 1.01 |
| O=C(NC(=O)c1c(F)cccc1F)Nc1cc(Cl)c(OC(F)(F)C(F)C(F)(F)F)cc1Cl (stereo not drawn) | 0.976 |

* * *

Consider the following compounds and their measured normalized growth readings.
test: chemical genetic growth profiling, strain panel (AID 1159580);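 also: tested at 20 µM; growth read once vehicle control cultures reached saturation at 30 °C; 1 = growth at the plate median or of vehicle wells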; conditions: S. cerevisiae deletion strains, growth OD, locus YLL026W, stronger effect = lower value
The whole screen tested about 5,500 compounds, of which about 2,000 (36%) were called active. Roughly 18% stayed inconclusive and do not appear here. This is one part of the list.

| Compound | normalized growth |
| --- | --- |
| CC[C@@]1(C2O[C@@H](C3O[C@@](O)(CC)[C@H](C)C[C@@H]3C)C[C@@H]2C)CC[C@H]([C@]2(C)CCC3(C[C@H](O)[C@@H](C)[C@@H]([C@H](C)[C@@H](OC)[C@H](C)C(=O)O)O3)O2)O1 (stereo partly specified) | 1 |
| Oc1ccc(/C=C/c2cc(O)cc(O)c2)cc1 | 0.99 |
| NCc1ccc(S(N)(=O)=O)cc1 | 1 |
| CCCN(CCC)C(=O)C(CCC(=O)O)NC(=O)c1ccccc1 (stereo unspecified) | 0.993 |
| CC(=O)OCC(=O)[C@@]12OC(C)(C)O[C@@H]1CC1C3C[C@H](F)C4=CC(=O)C=C[C@]4(C)[C@@]3(F)[C@@H](O)C[C@@]12C (stereo partly specified) | 1.02 |
| CC(=O)O[C@H]1CC[C@@]2(C)C(=CCC3C2CC[C@@]2(C)C3CC[C@@H]2C(C)CCCC(C)C)C1 (stereo partly specified) | 0.995 |
| C=CCc1cc(OC)c2c(c1OC)OCO2 | 0.923 |
| CC1(C)O[C@@H]2[C@@H](CO[C@@]3(COS(N)(=O)=O)OC(C)(C)O[C@@H]23)O1 | 1 |
| CCOC(=O)C1=C[C@]2(CC)CCCN3CCc4c(n1c1ccccc41)[C@@H]32 | 1.02 |
| Cc1cccc(CN2CCN(C(c3ccccc3)c3ccc(Cl)cc3)CC2)c1 (stereo unspecified) | 0.8 |
| Nc1ccc(S(=O)(=O)Nc2nccs2)cc1 | 1.02 |
| CCOP(=S)(OCC)Oc1ccc2c(C)c(Cl)c(=O)oc2c1 | 0.946 |
| CC[C@]1(O)CC2CN(CCc3c([nH]c4ccccc34)[C@@](C(=O)OC)(c3cc4c(cc3OC)N(C=O)[C@H]3[C@@](O)(C(=O)OC)[C@H](OC(C)=O)[C@]5(CC)C=CCN6CC[C@]43[C@@H]65)C2)C1 (stereo partly specified) | 0.992 |
| NC(=O)N/N=C\c1ccc([N+](=O)[O-])o1 | 0.999 |
| CCCN(CCC)CCc1cccc2c1CC(=O)N2 | 0.981 |
| O=C(O)CCC(=O)c1ccc(-c2ccccc2)cc1 | 0.989 |
| COc1ccc(CN(CCN(C)C)c2ncccn2)cc1 | 1 |
| O=C(O)c1cc(O)c(O)c(O)c1 | 1 |
| NC(=O)c1ccc(N)nc1 | 0.999 |
| CO[C@@H]1[C@@H](O[C@@H]2O[C@H](C)[C@@H](O[C@H]3C[C@@](C)(O)[C@H](O)[C@H](C)O3)[C@H](N(C)C)[C@H]2O)[C@@H](CC=O)C[C@@H](C)[C@@H](O[C@H]2CC[C@H](N(C)C)[C@@H](C)O2)/C=C/C=C/C[C@H](C)OC(=O)C[C@H]1O | 1.01 |
| O=C(O)c1cc(=O)c(O)c2c(O)c(O)ccc2c1 | 0.992 |
| Nc1nccs1 | 0.993 |
| CCC(COC(=O)c1cc(OC)c(OC)c(OC)c1)(c1ccccc1)N(C)C (stereo unspecified) | 0.975 |
| O=C(O)CNCP(=O)(O)O | 1.01 |
| O=C(O)c1cc(=O)c(O)c2c(O)c(O)c(O)cc2c1 | 0.804 |
| CC(=O)O[C@H]1CC[C@@]2(C)C(=CCC3C2CC[C@]2(C)C(=O)CCC32)C1 (stereo partly specified) | 1.02 |

* * *

assay: chemical genetic growth profiling, strain panel (AID 1159580);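 also: tested at 20 µM; growth read once vehicle control cultures reached saturation at 30 °C; 1 = growth at the plate median or of vehicle wells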; conditions: S. cerevisiae deletion strains, growth OD, locus YPR119W, strain clb2
The whole screen tested about 5,500 compounds, of which about 2,000 (36%) were called active. Not shown: some 18% with an inconclusive outcome. No stated cut-off is given here; in the data, active means normalized growth mostly below about 0.91 (no sharp cut-off); inconclusive means no clear call, values can overlap the other calls; inactive means mostly above about 0.92. The list shows a part of the results.
Labels: active, inactive

| Molecule | Class Name |
| --- | --- |
| CC[C@]12CCCN3CCc4c(n(c5ccccc45)C(=O)C1)[C@@H]32 | inactive |
| COc1cc2c3cc1Oc1cc(ccc1O)OC1c4c(cc(OC)c(O)c4Oc4ccc(cc4)CC3N(C)CC2)CCN1C (configuration not stated) | inactive |
| CCN(CC)CCOC(=O)C(Cc1cccc2ccccc12)CC1CCCO1 (configuration not stated) | inactive |
| Nc1nccs1 | inactive |
| c1cc2c(cc1[C@H]1OC[C@H]3[C@@H]1CO[C@H]3c1ccc3c(c1)OCO3)OCO2 | active |
| CC(=O)O[C@H]1C[C@@H](OC(C)=O)C(C)(C)C2C[C@@H](OC(C)=O)[C@]3(C)C(CC[C@@]4(C)[C@H](c5ccoc5)C(=O)[C@H]5O[C@]543)[C@]21C (some centres not stated) | inactive |
| CC(=O)N[C@@H]1[C@@H](C(O)[C@H](O)CO)O[C@](O)(C(=O)O)C[C@@H]1O (some centres not stated) | inactive |
| CC12CCCC(O)(C1)C1CC(C)(C)C1CC2 (configuration not stated) | inactive |
| CCOC(=O)c1ccc(N)cc1 | inactive |
| COc1cc(C(=O)O)c(O)c2c1OCO2 | inactive |
| CC1=C(/C=C/C(C)=C/C=C/C(C)=C/CO)C(C)(C)CCC1 | inactive |
| CC1=C(/C=C/C(C)=C/C=C/C(C)=C/C=C/C=C(C)/C=C/C=C(C)/C=C/C2=C(C)CCCC2(C)C)C(C)(C)CCC1 | inactive |
| O=C(/C=C/c1ccc(O)c(O)c1)O[C@@H]1C[C@](O)(C(=O)O)C[C@@H](O)[C@H]1O | inactive |
| C[C@](N)(Cc1ccc(O)c(O)c1)C(=O)O | inactive |
| NC(=O)c1cnccn1 | inactive |
| C=CCc1cc(OC)c2c(c1OC)OCO2 | active |
| CC[C@]12CCCN3CCc4c(n(c5ccccc45)[C@](O)(C(=O)OC)C1)[C@@H]32 | inactive |
| CS(=O)(=O)OCCCCOS(C)(=O)=O | inactive |
| CN(Cc1cc(Br)cc(Br)c1N)C1CCCCC1 | inactive |
| Oc1cc(O)cc(/C=C/c2ccccc2)c1 | inactive |
| COc1ccc(/C=C/c2cc(O)cc(O)c2)cc1 | inactive |
| CC1=CC(=O)CC(C)(C)C1(O)/C=C/C(C)=C\C(=O)O (configuration not stated) | inactive |
| C[C@@H]1CC2C3CCC4=CC(=O)C=C[C@]4(C)[C@@]3(F)[C@@H](O)C[C@]2(C)[C@@]1(O)C(=O)COP(=O)(O)O (some centres not stated) | inactive |
| CN1CCc2cccc3c2C1Cc1ccc(O)c(O)c1-3 (configuration not stated) | inactive |
| NCCCCN=C(N)N | inactive |
| O=c1ccn([C@@H]2O[C@H](COP(=O)(O)OP(=O)(O)OP(=O)(O)O)[C@@H](O)[C@H]2O)c(=O)[nH]1 | inactive |
| CC1(C)C2CC(=O)O[C@@]3(C)C4=CC(=O)O[C@@H](c5ccoc5)[C@]4(C)CCC3[C@@]2(C)C=C[C@H]1O (some centres not stated) | inactive |
